target: recombinant human caspase 3 (Homo sapiens, UniProt P42574); construct: Recombinant full-length human caspase-3 was purified as described previously [21b]; experiment: Caspase inhibition assay, standard fluorometric assay with Ac-DEVD-AMC; conditions: Ki(app) = IC50/(1 + [S]/KM), [S] = 10 μM Ac-DEVD-AMC, 37° C., pH 7.5
Sequence (P42574 29-175 limits assumed): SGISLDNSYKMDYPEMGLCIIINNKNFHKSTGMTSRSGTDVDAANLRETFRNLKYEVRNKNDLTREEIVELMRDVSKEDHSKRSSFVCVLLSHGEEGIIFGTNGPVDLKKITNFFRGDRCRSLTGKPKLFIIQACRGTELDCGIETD
Sequence (P42574 176-277 limits assumed): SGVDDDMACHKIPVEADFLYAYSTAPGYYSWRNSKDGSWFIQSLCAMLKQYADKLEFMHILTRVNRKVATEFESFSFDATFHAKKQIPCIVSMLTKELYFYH
pKi: −log10 of the molar value.
reported property: pKi

Solved entries (count: 5):
## Task Request the reported pKi associated with O=C1C(=O)N(Cc2ccc(O)cc2)c2ccc(S(=O)(=O)N3CCC[C@H]3COc3ccccc3)cc21
## Result 8.52

## Task Request the reported pKi associated with COC[C@@H]1CCCN1S(=O)(=O)c1ccc2c(c1)C(=O)C(=O)N2Cc1ccc(OCCF)cc1
## Result 7.44

## Task Request the reported pKi associated with O=C1C(=O)N(Cc2ccc(OCc3ccccc3)cc2)c2ccc(S(=O)(=O)N3CCC[C@H]3COc3ccccc3)cc21
## Result 8.16

## Task Request the reported pKi associated with O=C1C(=O)N(Cc2ccc(OCCF)cc2)c2ccc(S(=O)(=O)N3CCC[C@H]3COc3ccccc3)cc21
## Result 9.40

## Task Request the reported pKi associated with COC[C@@H]1CCCN1S(=O)(=O)c1ccc2c(c1)C(=O)C(=O)N2Cc1ccc(OCc2ccccc2)cc1
## Result 8.30

[A] O=C1C(=O)N(Cc2ccc(OCCBr)cc2)c2ccc(S(=O)(=O)N3CCC[C@H]3COc3ccccc3)cc21
[B] COC[C@@H]1CCCN1S(=O)(=O)c1ccc2c(c1)C(=O)C(=O)N2Cc1ccc(O)cc1
[C] O=C1C(=O)N(Cc2ccc(Br)cc2)c2ccc(S(=O)(=O)N3CCC[C@H]3COc3ccccc3)cc21
## Task Task field, ranking: reported pKi, descending order. Response field: labels, in requested order.
## Result C, A, B
(C: 8.52, A: 7.60, B: 7.35)

====

biological target: recombinant human caspase 3 (Homo sapiens); construct: Recombinant full-length human caspase-3 was purified as described previously [21b]; experiment: Caspase inhibition assay, standard fluorometric assay with Ac-DEVD-AMC; conditions: Ki(app) = IC50/(1 + [S]/KM), [S] = 10 μM Ac-DEVD-AMC, 37° C., pH 7.5
pKi: −log10 of the molar value.
reported property: pKi

Solved entries (count: 2):
## Task Request the reported pKi associated with CC(C)(C)[Si](C)(C)Oc1ccc(CN2C(=O)C(=O)c3cc(S(=O)(=O)N4CCC[C@H]4COc4ccccc4)ccc32)cc1
## Result 7.70

## Task Request the reported pKi associated with COC[C@@H]1CCCN1S(=O)(=O)c1ccc2c(c1)C(=O)C(=O)N2Cc1ccc(I)cc1
## Result 7.96

[P] COC[C@@H]1CCCN1S(=O)(=O)c1ccc2c(c1)C(=O)C(=O)N2Cc1ccc(O[Si](C)(C)C(C)(C)C)cc1
[Q] Cc1ccc(S(=O)(=O)OCCOc2ccc(CN3C(=O)C(=O)c4cc(S(=O)(=O)N5CCC[C@H]5COc5ccccc5)ccc43)cc2)cc1
## Task I need your help: which of the pair P , Q has higher pKi? I would appreciate it if you answered with the label of your choice.
## Result P
(P: 8.40, Q: 7.77)

====

# melting point listing for each entry below

Solved entries (count: 3):
## Task Request the reported melting point associated with O=C1C(=O)N(Cc2ccc(OCCBr)cc2)c2ccc(S(=O)(=O)N3CCC[C@H]3COc3ccccc3)cc21
## Result 162 to 163 °C

## Task Request the reported melting point associated with COC[C@@H]1CCCN1S(=O)(=O)c1ccc2c(c1)C(=O)C(=O)N2Cc1ccc(OCCBr)cc1
## Result 61 to 62 °C

## Task Request the reported melting point associated with COC[C@@H]1CCCN1S(=O)(=O)c1ccc2c(c1)C(=O)C(=O)N2Cc1ccc(I)cc1
## Result 129 to 130 °C

Now take the following compound into account.
## Task Request the reported melting point associated with COC[C@@H]1CCCN1S(=O)(=O)c1ccc2c(c1)C(=O)C(=O)N2Cc1ccc(OCCOS(=O)(=O)c2ccc(C)cc2)cc1
## Result 61 to 62 °C
